Property: Incorporation; scope: individual molecules
Species: Homo sapiens
Experiment: Mitogen-induced human lymphocyte proliferation measured by incorporation of [3H]thymidine in lymphocytes with Phytohemagglutininin at a concentration of 0.25 ug with compound at 10 uM
Format: functional
Write no unit; give the number alone.

Molecule	Incorporation
NC(=O)CC[C@H](NC(=O)c1nn(C2O[C@H](CO)[C@@H](O)[C@H]2O)c2nc(N)[nH]c(=O)c12)C(N)=O (some centres undefined)	48588
Nc1nc2c(c(C(=O)O)nn2C2O[C@H](CO)[C@@H](O)[C@H]2O)c(=O)[nH]1 (some centres undefined)	32955
N=C(N)NCCC[C@H](NC(=O)[C@H](Cc1ccccc1)NC(=O)c1nn(C2O[C@H](CO)[C@@H](O)[C@H]2O)c2nc(N)[nH]c(=O)c12)C(N)=O (some centres undefined)	36688

## Task What value of Incorporation has been recorded for this entry: Nc1nc2c(c(C(=O)N[C@@H](CCC(=O)O)C(=O)O)nn2C2O[C@H](CO)[C@@H](O)[C@H]2O)c(=O)[nH]1 (some centres undefined)
## Result 16224

* * *

compounds and their reported Incorporation
Species: Homo sapiens
Test: Mitogen-induced human lymphocyte proliferation measured by incorporation of [3H]thymidine in lymphocytes with Pokeweed mitogen at a concentration of 1/2500 ug with compound at 50 uM
Format: functional
Would you mind answering with just the numeric figure?

Some solved cases for reference:
Compound	Incorporation
NC(=O)CNC(=O)c1nn(C2O[C@H](CO)[C@@H](O)[C@H]2O)c2nc(N)[nH]c(=O)c12 (stereo not given in full)	39719
NC(=O)CC[C@H](NC(=O)c1nn(C2O[C@H](CO)[C@@H](O)[C@H]2O)c2nc(N)[nH]c(=O)c12)C(N)=O (stereo not given in full)	44234

## Task # get_value(readout='Incorporation', item= NC(=O)[C@H](Cc1ccccc1)NC(=O)c1nn(C2O[C@H](CO)[C@@H](O)[C@H]2O)c2nc(N)[nH]c(=O)c12 (stereo not given in full) )
## Result 40511

## Task Which value of Incorporation has been reported for Nc1nc2c(c(C(=O)O)nn2C2O[C@H](CO)[C@@H](O)[C@H]2O)c(=O)[nH]1 (stereo not given in full) in the records?
## Result 34808

## Task What value of Incorporation has been recorded for this entry: N=C(N)NCCC[C@H](NC(=O)[C@H](Cc1ccccc1)NC(=O)c1nn(C2O[C@H](CO)[C@@H](O)[C@H]2O)c2nc(N)[nH]c(=O)c12)C(N)=O (stereo not given in full)
## Result 19755

* * *

Organism: Homo sapiens
Assay: Mitogen-induced human lymphocyte proliferation measured by incorporation of [3H]thymidine in lymphocytes with Pokeweed mitogen at a concentration of 1/2500 ug with compound at 400 uM
Assay type: functional
Note to self: values exactly at 30000 are YES. So Incorporation at or above 30000 is YES, below is NO.

Compound	Label Class
Nc1nc2c(c(C(=O)O)nn2C2O[C@H](CO)[C@@H](O)[C@H]2O)c(=O)[nH]1 (stereo not given in full)	YES
N=C(N)NCCC[C@H](NC(=O)[C@H](Cc1ccccc1)NC(=O)c1nn(C2O[C@H](CO)[C@@H](O)[C@H]2O)c2nc(N)[nH]c(=O)c12)C(N)=O (stereo not given in full)	NO
NC(=O)CNC(=O)c1nn(C2O[C@H](CO)[C@@H](O)[C@H]2O)c2nc(N)[nH]c(=O)c12 (stereo not given in full)	YES

With those in mind, consider the next compound.
## Task Determine whether this compound has Incorporation no lower than 30000: NC(=O)[C@H](Cc1ccccc1)NC(=O)c1nn(C2O[C@H](CO)[C@@H](O)[C@H]2O)c2nc(N)[nH]c(=O)c12 (stereo not given in full)
## Result YES
